# Test system: ERK8;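 note: KINOMEscan kinase panel screen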
# Construct: gene MAPK15
# CONDITION_DETAILS: concentration: 1 μM, replicates: in singlicate; n = 1
QUANTITY_KIND: %Inh
Write the quantity with the unit trailing the number.

Example entries begin here.
Fill blank: measured %Inh of the compound COc1cccc(-c2ccc3c(NC(=O)C4CC4)n[nH]c3n2)c1 [SB-710903] is ____.
11%

Next up: `Cc1ccc(C(=O)N2CC[C@@H](O)C2)cc1-n1c(C)cc(OCc2ccc(F)cc2F)c(Br)c1=O`
0%

Next up: CCS(=O)(=O)c1ccc(OC)c(Nc2nccc(-c3c(-c4cccc(NC(=O)c5c(F)cccc5F)c4)nn4ncccc34)n2)c1 [GSK326180]
0%

Next up: COC(=O)Nc1nc2ccc(Oc3ccc(NC(=O)Nc4cc(C(F)(F)F)ccc4F)cc3)cc2n1C.Cl [GW692089]
72%

Next up: O=C(Nc1n[nH]c2cc(-c3ccoc3)ccc12)C1CC1 [SB-738481]
84%

Next up: Cc1cccc(Nc2nc(N[C@H]3CCNC3)ncc2C(N)=O)c1.Cl [GSK2197149]
12%

New cases:
Fill blank: measured %Inh of the compound `CCc1ccc(-c2ccc3c(c2)-c2c(cnn2C)S(=O)(=O)N3C)cc1` is ____.
0%

Next up: CN(C)Cc1ccc(-c2ccc3c(Nc4ccc(Oc5ccccn5)cc4)ccnc3c2)o1 [GW567148]
23%

Next up: Cl.c1ccc(-c2ccc3c(Nc4ccc5[nH]ncc5c4)ccnc3c2)nc1 [GW440137]
0%

Next up: Oc1cc(Nc2ccnc3cc(I)ccc23)ccc1F [GW552771]
11%

Next up: `COc1ccc(-c2coc3ccc(-c4nnc(SCc5ccc(OC)c(C(F)(F)F)c5)o4)cc23)cc1`
2%

Next up: CN(c1ccc(NC(=O)Nc2cc(C(F)(F)F)ccc2F)cc1)c1ccnc(Nc2ccc(S(N)(=O)=O)cc2)n1 [GW809893]
98.6%

Next up: CCCCc1nn2ncccc2c1-c1ccnc(Nc2ccc(N3CCN(C)CC3)cc2)n1 [GW684941]
63%

Next up: Clc1ccc(-c2nn3ncccc3c2-c2ccnc(Nc3ccc4c(c3)OCCO4)n2)cc1 [GW829116]
1%

Next up: CN(C)S(=O)(=O)c1cc(-c2ccc3nccc(-c4cccc(S(N)(=O)=O)c4)c3c2)cnc1N [GSK1669921]
40%

Next up: COc1ccc(Nc2nccc(NCCNC(=O)c3cc4ccccc4s3)n2)cc1 [GSK1379896]
0%

Next up: `O=C(Nc1cccc(Oc2ccc3nc(NC(=O)C4CC4)cn3n2)c1)c1ccccc1C(F)(F)F`
20%

Next up: `COc1cccc(C(=O)Nc2cccc(Oc3ccc4nc(NC(=O)C5CC5)cn4n3)c2)c1`
14%
